test: NCI Yeast Anticancer Drug Screen. Data for the cln2 rad14 strain (AID 165); details: S. cerevisiae cln2 rad14 strain, at 50.0 µM
Compounds without any hit were thinned out: in the full panel of roughly 79,000, 15% have a hit. Calls of active or inactive are those of the source. Cut-off read from the data, not from the text of the source: active = growth inhibition above about 70%; inactive = the rest.
# output must be one of active, inactive

Consider the following illustrative entries.
> print(dat)
                                   compound  class.assignment
1  O=C1C(=Cc2ccc(Cl)c(Cl)c2)C([O-])=C([P+](c2ccccc2)(c2ccccc2)c2ccccc2)C([O-])=C1[P+](c1ccccc1)(c1ccccc1)c1ccccc1          inactive
2           N=C(N)c1ccc(OCCOc2cccc(N)c2)cc1          inactive
3  CC1C2CC(C3(C)OCCO3)CCC2(C)CCC12OCCO2 (stereo not drawn)          inactive
4                          Oc1ccc2c(c1)CCC2          inactive
5  O=C(c1nc2cc([N+](=O)[O-])ccc2[nH]c1=O)C(O)c1ccco1 (stereo not drawn)          inactive

Query: Give the logged outcome of this assay for the following compound: CC(C)OC(=S)SCC(=O)c1ccc(-c2ccccc2)cc1
Reply: inactive

Query: Check the results log: what was the call for C=C1CC(C)(Cn2c(N)nc3nc[nH]c3c2=O)OC1=O (stereo not drawn) ?
Reply: inactive

Query: Give the logged outcome of this assay for the following compound: NC(=O)C1OC1(c1ccccc1)c1ccccc1 (stereo not drawn)
Reply: inactive

Query: Recorded test call requested for Cc1ccc(S(=O)(=O)/C(C#N)=C\N2CCNC2=S)cc1
Reply: inactive

Query: // outcome(item) with item = O=CNc1ccccc1-c1ccccc1
Reply: inactive

Query: Test call for this compound, please: NC(CC(=O)OCc1ccccc1)C(=O)OCc1ccccc1 (stereo not drawn)
Reply: inactive

Query: Hey, what did the test say about Cn1c(C=O)cc2c(Cl)nccc21 ?
Reply: inactive

Query: Which outcome was entered for the compound Cc1ccc2ccccc2c1Br in this test?
Reply: inactive

Query: Short answer needed: outcome of this test for COc1ccn(C2OC(=O)C(C)(C)C2=O)c(=O)n1 (stereo not drawn) ?
Reply: inactive

Query: Hi team, can someone confirm the assay call for CCc1cccc(C(C)C)c1NC(=O)C(=O)C(Cc1nc2ccccc2[nH]c1=O)C(=O)OC (stereo not drawn) ?
Reply: inactive

Query: Please state the recorded outcome for this compound: CC(O)(C#Cc1ccccc1)c1nc2ccccc2s1 (stereo not drawn)
Reply: inactive

Query: Could you check what this test reported for N#Cc1cc2c(cc1C#N)SCCSCCCSCCS2 ?
Reply: inactive

Query: Dear colleague, could you share the recorded outcome for Oc1cccc2ccc[n+](CCc3ccccc3)c12 when you have a moment?
Reply: inactive
